Give measured Antianxiety/abuse liability for each item. Keep answers brief.
# Test system: Male Sprague-Dawley rats
# method_notes: Discriminative stimulus effects of chlordiazepoxide in rats (drug discrimination)
# particulars: ratio of lowest effective anxiolytic dose (situational anxiety) and lowest effective dose producing chlordiazepoxide-like effects in drug discrimination

Query block: Could you share which Antianxiety/abuse liability value was measured for CN1C(=O)CN=C(c2ccccc2)c2cc(Cl)ccc21 [Diazepam, reference compound] ?
Result block: 5

Query block: Could you share which Antianxiety/abuse liability value was measured for Cc1nnc2n1-c1ccc(Cl)cc1C(c1ccccc1Cl)=NC2 [Triazolam, reference compound] ?
Result block: 30

Query block: Could you share which Antianxiety/abuse liability value was measured for C#Cc1ccc2c(c1)C(c1ccccc1Cl)=NCc1nnc(C)n1-2 ?
Result block: 1000

Query block: Could you share which Antianxiety/abuse liability value was measured for C#Cc1ccc2c(c1)C(c1ccccc1)=NCC(=O)N2C ?
Result block: 30

Query block: Could you share which Antianxiety/abuse liability value was measured for C#Cc1ccc2c(c1)C(c1ccccc1)=NCc1c(C(=O)OCC)ncn1-2 ?
Result block: >300

Query block: Could you share which Antianxiety/abuse liability value was measured for CCOC(=O)c1ncn2c1CN=C(c1ccccc1)c1cc(Br)ccc1-2 ?
Result block: 10
